# assayed_system: beta-catenin/TCF4 engagement (Homo sapiens, UniProt P35222)
# Construct: expressed in transfected cells; host or cells: HEK293
# Sequence (P35222 whole entry): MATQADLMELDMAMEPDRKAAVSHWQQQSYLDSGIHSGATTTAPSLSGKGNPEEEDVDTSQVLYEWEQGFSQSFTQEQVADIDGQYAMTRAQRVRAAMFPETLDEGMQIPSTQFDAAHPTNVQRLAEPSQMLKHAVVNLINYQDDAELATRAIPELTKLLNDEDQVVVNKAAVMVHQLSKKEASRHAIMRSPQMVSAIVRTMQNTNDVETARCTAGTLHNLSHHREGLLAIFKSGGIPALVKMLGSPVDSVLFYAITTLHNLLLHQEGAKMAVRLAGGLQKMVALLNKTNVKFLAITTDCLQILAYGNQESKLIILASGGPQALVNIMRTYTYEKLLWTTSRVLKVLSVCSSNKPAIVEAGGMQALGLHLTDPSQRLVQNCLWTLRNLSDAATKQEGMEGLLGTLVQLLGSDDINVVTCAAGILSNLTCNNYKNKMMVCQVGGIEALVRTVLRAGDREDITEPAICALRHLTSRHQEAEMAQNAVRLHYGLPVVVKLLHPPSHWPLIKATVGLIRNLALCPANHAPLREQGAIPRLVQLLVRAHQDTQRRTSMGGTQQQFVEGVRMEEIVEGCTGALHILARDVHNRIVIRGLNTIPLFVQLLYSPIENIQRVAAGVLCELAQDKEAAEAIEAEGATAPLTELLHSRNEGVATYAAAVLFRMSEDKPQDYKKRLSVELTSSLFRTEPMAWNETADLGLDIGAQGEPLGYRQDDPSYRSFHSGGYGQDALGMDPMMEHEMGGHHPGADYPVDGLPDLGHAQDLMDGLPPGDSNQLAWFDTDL
# method_summary: Nano-BRET target engagement assay (B-cat-Halo & TCF4-Luc in HEK293 cells)
# Type: cell-based
# condition_set: absolute IC50; read-out: NanoBRET Abs IC50
parameter: pIC50
Here pIC50 is given on a logarithmic scale as minus log10 of the concentration in mol/L.

Lab note: CC(=O)N1CCC[C@]12CC=CCCCC1(CCCC=CCCCOC(=O)N3CC[C@@](C(=O)N[C@@H](Cc4ccsc4)C(=O)N[C@@H](Cc4ccc(Cl)cc4)C(=O)N[C@@H](CCC(N)=O)C(N)=O)(C3)NC(=O)[C@H](CC(C)C)NC(=O)[C@H](Cc3ccccc3)NC(=O)[C@H](C)NC(=O)[C@H](C)NC(=O)[C@H](Cc3cccc(C(=O)O)c3)NC(=O)[C@H](CC(=O)O)NC1=O)NC(=O)[C@H](CC(C)(C)C)NC(=O)[C@H](CC(=O)O)NC2=O (some centres unmarked) gave pIC50 of 4.79
